# assayTarget: recombinant human MAO-B (monoamine oxidase-B) (Homo sapiens, UniProt P27338)
# Construct: purchased Sigma-Aldrich
# Sequence (P27338 whole entry): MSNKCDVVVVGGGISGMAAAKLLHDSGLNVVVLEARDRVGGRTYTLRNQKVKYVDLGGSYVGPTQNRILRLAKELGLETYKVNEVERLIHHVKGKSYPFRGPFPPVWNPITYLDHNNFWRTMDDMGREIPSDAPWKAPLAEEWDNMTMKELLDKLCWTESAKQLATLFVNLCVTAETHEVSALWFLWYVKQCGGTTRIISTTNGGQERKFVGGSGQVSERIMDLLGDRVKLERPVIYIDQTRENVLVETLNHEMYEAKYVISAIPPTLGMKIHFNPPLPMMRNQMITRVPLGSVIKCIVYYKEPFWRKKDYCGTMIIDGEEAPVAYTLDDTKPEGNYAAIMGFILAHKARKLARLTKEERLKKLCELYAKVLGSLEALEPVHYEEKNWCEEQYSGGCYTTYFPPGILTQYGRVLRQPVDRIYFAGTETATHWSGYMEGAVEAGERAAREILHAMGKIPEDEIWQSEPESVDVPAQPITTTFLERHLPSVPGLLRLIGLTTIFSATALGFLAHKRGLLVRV
# testName: Amplex Red HRP-coupled amine oxidase activity evaluation, recombinant human MAO-B
# Type: biochemical
# conditions: substrate 1 mM benzylamine; read-out: Inhibitory Activity (IC50, nM) MAO-B
Structures can show the parent of a compound that is named as a salt.
valueKind: IC50 (nM)

>>> df
                                   compound                               assaytarget  measureunit  censoringsign  measurement
0  CCn1cc(-c2cccc(Cn3nnn(CC(CN)=C(F)F)c3=O)c2)ccc1=O [Example 34, trifluoroacetate]  recombinant human MAO-B (monoamine oxidase-B) (Homo sapiens, UniProt P27338)           nM              =        53900
1  CN1C(=O)CCc2cc(-c3cccc(-n4nnn(CC(CN)=C(F)F)c4=O)c3)ccc21 [Example 14, trifluoroacetate]  recombinant human MAO-B (monoamine oxidase-B) (Homo sapiens, UniProt P27338)           nM              =         2470
2  CCn1cc(-c2ccc(-n3nnn(CC(CN)=C(F)F)c3=O)cc2)cn1 [Example 22, trifluoroacetate]  recombinant human MAO-B (monoamine oxidase-B) (Homo sapiens, UniProt P27338)           nM              =           74
3  CCn1cc(-c2ccc(Cn3ccn(CC(CN)=C(F)F)c3=O)s2)ccc1=O [Example 50, trifluoroacetate]  recombinant human MAO-B (monoamine oxidase-B) (Homo sapiens, UniProt P27338)           nM              >       100000
4  CCn1cc(-c2ccc(-n3nnn(CC(CN)=C(F)F)c3=O)s2)ccc1=O [Example 9, trifluoroacetate]  recombinant human MAO-B (monoamine oxidase-B) (Homo sapiens, UniProt P27338)           nM              =          203
5  Cc1nn(CC(CN)=C(F)F)c(=O)n1Cc1ccc(-c2ccc3c(c2)CCC(=O)N3C)s1 [Example 8, trifluoroacetate]  recombinant human MAO-B (monoamine oxidase-B) (Homo sapiens, UniProt P27338)           nM              >       100000
6  Cc1cc(-c2ccc(-n3nnn(CC(CN)=C(F)F)c3=O)cc2)cc2c1NC(=O)CC2 [Example 20, trifluoroacetate]  recombinant human MAO-B (monoamine oxidase-B) (Homo sapiens, UniProt P27338)           nM              =           49
